This collection of values is drawn from the kinase profiling compilation of Christmann-Franck et al. (2016).

# target entity: UniProt Q04771
# Sequence (Q04771 whole entry, looked up): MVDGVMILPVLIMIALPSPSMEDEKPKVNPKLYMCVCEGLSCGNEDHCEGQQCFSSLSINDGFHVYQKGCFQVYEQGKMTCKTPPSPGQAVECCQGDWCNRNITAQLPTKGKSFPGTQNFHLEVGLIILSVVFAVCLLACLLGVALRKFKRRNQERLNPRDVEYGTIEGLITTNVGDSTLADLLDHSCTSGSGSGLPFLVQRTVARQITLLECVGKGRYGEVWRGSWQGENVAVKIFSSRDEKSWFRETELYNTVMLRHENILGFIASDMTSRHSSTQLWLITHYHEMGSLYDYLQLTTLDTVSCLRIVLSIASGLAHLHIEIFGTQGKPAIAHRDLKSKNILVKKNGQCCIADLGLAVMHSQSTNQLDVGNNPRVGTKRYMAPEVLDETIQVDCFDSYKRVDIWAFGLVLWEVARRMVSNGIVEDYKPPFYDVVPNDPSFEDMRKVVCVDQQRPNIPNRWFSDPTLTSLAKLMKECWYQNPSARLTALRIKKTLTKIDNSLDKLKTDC
# experiment: KINOMEscan competition binding
# assay context: compound 10.0 µM
endpoint: kinase still bound, per cent of control

Which kinase still bound, per cent of control value is on record for NC(=O)c1ccc(-c2cc(C(N)=O)c(N)c(-c3ccc(S(N)(=O)=O)cc3)c2)cc1 ?
no effect (inactive)

# repeat for c1ccc(-c2n[nH]cc2-c2ccnc3ccccc23)nc1
no effect (inactive)

Then what about the compound CCS(=O)(=O)Nc1ccc2c(c1)[C@H](/C(=N/c1ccc(CN3CCCCC3)cc1)c1ccccc1)C(=O)N2 ?
0.1%

Check O=C1Nc2ccccc2/C1=C/c1ccc[nH]1 too.
no effect (inactive)

Further cases:
Which kinase still bound, per cent of control is listed for Cc1ccc(NC(=O)c2cccc(N3CCCCC3)c2)cc1-c1ccc(C(=O)NCC2CC2)cc1 ?
no effect (inactive)

---

# target entity: UniProt:P41240
# Sequence (P41240 whole entry, looked up): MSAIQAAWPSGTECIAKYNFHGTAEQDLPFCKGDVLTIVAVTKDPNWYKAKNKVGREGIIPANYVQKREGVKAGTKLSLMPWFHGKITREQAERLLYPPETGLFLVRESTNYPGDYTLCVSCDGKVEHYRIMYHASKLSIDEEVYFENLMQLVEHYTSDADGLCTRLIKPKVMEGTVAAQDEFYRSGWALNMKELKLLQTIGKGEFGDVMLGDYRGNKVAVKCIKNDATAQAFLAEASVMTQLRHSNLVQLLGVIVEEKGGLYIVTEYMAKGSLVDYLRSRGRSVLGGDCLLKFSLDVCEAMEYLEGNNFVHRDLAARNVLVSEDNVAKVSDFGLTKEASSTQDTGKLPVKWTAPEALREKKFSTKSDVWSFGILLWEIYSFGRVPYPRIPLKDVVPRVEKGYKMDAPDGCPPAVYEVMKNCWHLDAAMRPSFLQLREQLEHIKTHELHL
# experiment: KINOMEscan competition binding
# assay context: compound 10.0 µM
endpoint: kinase still bound, per cent of control

Please review the entries below; each comes with its answer.
Return reported kinase still bound, per cent of control; argument: O=C1Nc2ccccc2/C1=C/c1ccc[nH]1
no effect (inactive)

Try Cc1ccc(NC(=O)c2cccc(N3CCCCC3)c2)cc1-c1ccc(C(=O)NCC2CC2)cc1 next.
no effect (inactive)

Query N#Cc1ccc(-c2cnc3[nH]cc(NC(=O)c4cccnc4)c3c2)cc1 next
no effect (inactive)

Then what about the molecule Cc1cc(Nc2cc(N3CCN(C)CC3)nc(Sc3ccc(NC(=O)C4CC4)cc3)n2)[nH]n1 ?
no effect (inactive)

What about this molecule? NC(=O)c1ccc(-c2cc(C(N)=O)c(N)c(-c3ccc(S(N)(=O)=O)cc3)c2)cc1
no effect (inactive)

Next molecule: c1ccc(-c2n[nH]cc2-c2ccnc3ccccc23)nc1
no effect (inactive)

Proceed to O=C(Nc1n[nH]c2nc(-c3cccc(O)c3)ccc12)C1CC1
no effect (inactive)

Next molecule: CC(=O)c1c(-c2ccncc2)[nH]c(-c2ccncc2)c1C
no effect (inactive)

More entries:
// returns reported kinase still bound, per cent of control for input NC(=O)c1ccc(Nc2cc(-c3ccc(F)cc3)[nH]n2)cc1
no effect (inactive)

Same thing, different molecule: Cc1ccc(O)cc1Nc1ccnc(Nc2cccc(C(N)=O)c2)n1
0%

Same question for CN(C)c1ccc(-c2cc3ncccc3c(NCCCCN)n2)cc1 please.
no effect (inactive)

Also need CCS(=O)(=O)Nc1ccc2c(c1)[C@H](/C(=N/c1ccc(CN3CCCCC3)cc1)c1ccccc1)C(=O)N2 , thanks.
0%

---

# target entity: UniProt Q15759
# Sequence (Q15759 whole entry, looked up): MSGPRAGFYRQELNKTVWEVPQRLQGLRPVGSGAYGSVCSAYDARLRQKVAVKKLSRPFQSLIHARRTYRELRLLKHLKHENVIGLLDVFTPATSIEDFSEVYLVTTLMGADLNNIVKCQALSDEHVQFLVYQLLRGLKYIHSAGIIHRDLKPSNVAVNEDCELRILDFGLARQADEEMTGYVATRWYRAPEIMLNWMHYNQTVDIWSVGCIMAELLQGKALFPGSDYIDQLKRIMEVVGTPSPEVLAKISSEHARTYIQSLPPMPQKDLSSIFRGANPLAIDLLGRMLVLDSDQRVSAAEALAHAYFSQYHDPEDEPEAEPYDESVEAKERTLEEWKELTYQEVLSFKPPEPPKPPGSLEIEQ
# experiment: KINOMEscan competition binding
# assay context: compound 10.0 µM
endpoint: kinase still bound, per cent of control

Recorded kinase still bound, per cent of control for Cc1cc(Nc2cc(N3CCN(C)CC3)nc(Sc3ccc(NC(=O)C4CC4)cc3)n2)[nH]n1 , please?
no effect (inactive)

Follow-up entry: c1ccc(-c2n[nH]cc2-c2ccnc3ccccc23)nc1
no effect (inactive)

Another: NC(=O)c1ccc(-c2cc(C(N)=O)c(N)c(-c3ccc(S(N)(=O)=O)cc3)c2)cc1
no effect (inactive)

CCS(=O)(=O)Nc1ccc2c(c1)[C@H](/C(=N/c1ccc(CN3CCCCC3)cc1)c1ccccc1)C(=O)N2 ?
no effect (inactive)

// same read-out, input: Cc1ccc(C(=O)Nc2cccc(C(C)(C)C)c2)cc1-c1ccc(C(=O)NCC2CC2)cc1
0%

Continuing:
Report kinase still bound, per cent of control for CC(=O)c1c(-c2ccncc2)[nH]c(-c2ccncc2)c1C please.
no effect (inactive)

Repeat with O=C1Nc2ccccc2/C1=C/c1ccc[nH]1
no effect (inactive)

What would you report for Cc1ccc(NC(=O)c2cccc(N3CCCCC3)c2)cc1-c1ccc(C(=O)NCC2CC2)cc1 ?
0%

Same question, NC(=O)c1ccc(Nc2cc(-c3ccc(F)cc3)[nH]n2)cc1 this time
no effect (inactive)

Now give it for N#Cc1ccc(-c2cnc3[nH]cc(NC(=O)c4cccnc4)c3c2)cc1 too.
no effect (inactive)

And for NC(=O)Nc1sc(-c2ccc(F)cc2)cc1C(N)=O ?
no effect (inactive)

Another molecule to look at: CN(C)c1ccc(-c2cc3ncccc3c(NCCCCN)n2)cc1
no effect (inactive)
